target: Mcl-1 protein (residues 171-323) (Homo sapiens)
Sequence (Q07820 171-323): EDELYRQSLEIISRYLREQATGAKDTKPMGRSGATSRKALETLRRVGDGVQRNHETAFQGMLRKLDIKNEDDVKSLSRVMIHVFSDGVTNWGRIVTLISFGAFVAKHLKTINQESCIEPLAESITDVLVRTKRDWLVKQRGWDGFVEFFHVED
endpoint label: IC50 (nM)

Solved entries (count: 2):
CO[C@@]1(CN2CCC(N3CCOCC3)CC2)C2=C[C@@H](C2)[C@H](C)[C@@H](C)S(=O)(=O)NC(=O)c2ccc3c(c2)N(C[C@@H]2CC[C@H]21)C[C@@]1(CCCc2c1ccc(Cl)c2F)CO3
17
C[C@@H]1[C@@H](C)S(=O)(=O)NC(=O)c2ccc3c(c2)N(C[C@@H]2CC[C@H]2[C@@H](OCC(=O)N2CCN(C)CC2)C2=C[C@H]1C2)C[C@@]1(CCCc2c1ccc(Cl)c2F)CO3
14

I. CCO[C@@]1(CN2CCN3CCOC[C@H]3C2)C2=C[C@@H](C2)[C@H](C)[C@@H](C)S(=O)(=O)NC(=O)c2ccc3c(c2)N(C[C@@H]2CC[C@H]21)C[C@@]1(CCCc2c1ccc(Cl)c2F)CO3
II. CO[C@H]1C2=CC(C2)[C@H](C)[C@@H](C)S(=O)(=O)NC(=O)c2ccc3c(c2)N(C[C@@H]2CC[C@H]21)C[C@@]1(CCCc2cc(Cl)c(F)cc21)CO3 (single isomer, unassigned) [Cpd. No. 21 (isomer 1)]
Smaller IC50 value, I vs II ? Give the chosen item's label as your response.
II
